# System: Escherichia coli TOP10
# assay info: shrunken log2 fold change of peptide-encoding DNA abundance (4.5 h post-induction vs induction); higher = less antimicrobial activity (less host growth inhibition)
# conditions used: time post-induction: 4.5 h; library: site-saturation at positions 5, 18, 19, 20
Readings of shrunken log2 fold change for the listed sequences
Just the number, please, no unit after it.

Example sequences with recorded shrunken log2 fold change:
>  <chain sequence>
RRIRRRPPRLPRPRPRPFIGPRP

>  <tested on>
Escherichia coli TOP10

>  <recorded measurement>
-0.25

$$$$
>  <chain sequence>
RRIRKRPPRLPRPRPRPAKMPRP

>  <tested on>
Escherichia coli TOP10

>  <recorded measurement>
0.376

$$$$
>  <chain sequence>
RRIRHRPPRLPRPRPRPYGGPRP

>  <tested on>
Escherichia coli TOP10

>  <recorded measurement>
-0.91

$$$$
>  <chain sequence>
RRIRVRPPRLPRPRPRPTDKPRP

>  <tested on>
Escherichia coli TOP10

>  <recorded measurement>
-0.0288

$$$$
>  <chain sequence>
RRIRLRPPRLPRPRPRPFHTPRP

>  <tested on>
Escherichia coli TOP10

>  <recorded measurement>
-0.00564

$$$$
>  <chain sequence>
RRIRKRPPRLPRPRPRPSLAPRP

>  <tested on>
Escherichia coli TOP10

>  <recorded measurement>
0.614

$$$$
>  <chain sequence>
RRIRFRPPRLPRPRPRPSHPPRP

>  <tested on>
Escherichia coli TOP10

>  <recorded measurement>
-0.19

$$$$
>  <chain sequence>
RRIRFRPPRLPRPRPRPEYRPRP

>  <tested on>
Escherichia coli TOP10

>  <recorded measurement>
-0.218

$$$$
>  <chain sequence>
RRIRLRPPRLPRPRPRPIWVPRP

>  <tested on>
Escherichia coli TOP10

>  <recorded measurement>
-0.0362

$$$$
>  <chain sequence>
RRIRKRPPRLPRPRPRPCSTPRP

>  <tested on>
Escherichia coli TOP10

>  <recorded measurement>
0.0274

$$$$

Exercise: Looking for the measured shrunken log2 fold change of "RRIRLRPPRLPRPRPRPAWHPRP" , can you help?
Key: 0.183

Exercise: Looking for the measured shrunken log2 fold change of "RRIRFRPPRLPRPRPRPQRKPRP" , can you help?
Key: 0.089

###

# System: Escherichia coli TOP10;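 note: peptides expressed intracellularly from a pBAD plasmid library in pooled LB shake-flask culture, induced with 0.3% L-arabinose, DNA abundance read by NGS, three biological replicates, DESeq2 with apeglm shrinkage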
# assay info: shrunken log2 fold change of peptide-encoding DNA abundance (4.5 h post-induction vs induction); higher = less antimicrobial activity (less host growth inhibition)
# conditions used: time post-induction: 4.5 h; library: site-saturation at positions 5, 18, 19, 20
value kind: shrunken log2 fold change
Just the number, please, no unit after it.

>  <chain sequence>
RRIRHRPPRLPRPRPRPENLPRP

>  <shrunken log2 fold change>
-0.00992

$$$$
>  <chain sequence>
RRIRFRPPRLPRPRPRPECPPRP

>  <shrunken log2 fold change>
0.0177

$$$$

Exercise: Looking for the measured shrunken log2 fold change of "RRIRERPPRLPRPRPRPMLPPRP" , can you help?
Key: -0.397

Exercise: Looking for the measured shrunken log2 fold change of "RRIRTRPPRLPRPRPRPDGQPRP" , can you help?
Key: 0.0697

Exercise: Looking for the measured shrunken log2 fold change of "RRIRMRPPRLPRPRPRPQNPPRP" , can you help?
Key: 0.26

Exercise: Looking for the measured shrunken log2 fold change of "RRIRHRPPRLPRPRPRPETYPRP" , can you help?
Key: -0.00431

Exercise: Looking for the measured shrunken log2 fold change of "RRIRIRPPRLPRPRPRPVHYPRP" , can you help?
Key: -0.497

Exercise: Looking for the measured shrunken log2 fold change of "RRIRNRPPRLPRPRPRPWQKPRP" , can you help?
Key: -0.18

Exercise: Looking for the measured shrunken log2 fold change of "RRIRFRPPRLPRPRPRPGHDPRP" , can you help?
Key: 0.062

Exercise: Looking for the measured shrunken log2 fold change of "RRIRNRPPRLPRPRPRPKSEPRP" , can you help?
Key: -0.414

Exercise: Looking for the measured shrunken log2 fold change of "RRIRPRPPRLPRPRPRPCTDPRP" , can you help?
Key: -0.0332

Exercise: Looking for the measured shrunken log2 fold change of "RRIRTRPPRLPRPRPRPATSPRP" , can you help?
Key: -0.12

Exercise: Looking for the measured shrunken log2 fold change of "RRIRQRPPRLPRPRPRPGQAPRP" , can you help?
Key: 0.0026

Exercise: Looking for the measured shrunken log2 fold change of "RRIRLRPPRLPRPRPRPGCVPRP" , can you help?
Key: 0.182

Exercise: Looking for the measured shrunken log2 fold change of "RRIRMRPPRLPRPRPRPPANPRP" , can you help?
Key: 1.17
